- Test summary: qHTS of TDP-43 Inhibitors; also: nearly all actives have a fitted effect of over 50% in size
- Test parameters: TDP-43 expressing yeast growth rescue, BacTiter-Glo, 24 h; series mostly up to 46.1 µM
Among all 410,000 compounds or so, about 7,200 (1.8%) were called active. Inconclusive results (about 7%) are left out. Calls follow the shape of the dose curve; as a rule, active = well fitted activation curve with a large enough effect; inconclusive = small, poorly fitted or top-dose-only effect, or another doubt; inactive = no such curve, though single readings can be large or run the other way. The sample as a whole holds a higher share of actives than the screen did.
Classes used: Yes (active), No (inactive)

>  <Compound>
COc1ccc(N2CCN(C(=O)CCSCc3ccccc3F)CC2)cc1

>  <Label>
No

$$$$
>  <Compound>
CSc1cccc(NC(=S)N(Cc2ccccc2)Cc2ccccn2)c1

>  <Label>
Yes

$$$$
>  <Compound>
O=C(CO/N=C/c1ccccc1O)NNC(=O)c1ccccc1Cl

>  <Label>
Yes

$$$$
>  <Compound>
CCc1ccccc1NC(=O)CSc1nnc(-c2ccccc2)c(-c2ccccc2)n1

>  <Label>
No

$$$$
>  <Compound>
CCOc1ccccc1NC(=O)Cn1c(=O)n(Cc2ccccc2)c(=O)c2c(C)c(C(=O)N(C)C)sc21

>  <Label>
No

$$$$
>  <Compound>
CCOc1cc(C(=O)Nc2nnc3n2CCS3)cc(OCC)c1OCC

>  <Label>
No

$$$$
>  <Compound>
COc1ccc(-c2cc(C(=O)NCc3cc(OC)c(OC)c(OC)c3)[nH]n2)cc1

>  <Label>
No

$$$$
>  <Compound>
Cc1c(Cl)cccc1NC(=S)N(Cc1ccccc1)Cc1cccnc1

>  <Label>
No

$$$$
>  <Compound>
Cc1cc(C)cc(NC(c2nnc(-c3cccc(F)c3)o2)c2ccc(F)cc2Cl)c1 (stereo not given)

>  <Label>
No

$$$$
>  <Compound>
Cc1cccc(C(=O)Nc2ccc(-c3nc4ncccc4o3)cc2C)c1

>  <Label>
No

$$$$

Origin of measurements: PubChem BioAssay AID652104
